experiment: Waters ACQUITY UPLC BEH C18, 50 × 2.1 mm, 1.7 µm, 30 °C, 0.3 mL/min, estimated dead time 0.37 min; A: water + 0.3% formic acid; B: acetonitrile; gradient (min/%B) 0.5/5 3.5/20 5.5/25 7/57 8/90; conditions: stereoisomer not certain
Hi! Just check whether LC retention time is below 5 min. Below gives condition met, equal or above gives condition not met.

I'd appreciate it if you could check whether CC(C)NCC(O)COc1ccc(CC(N)=O)cc1 (stereo not drawn) has LC retention time smaller than 5 min.
condition met

Criterion: LC retention time strictly below 5 min. Is it met by CC(C)c1c(CN(C)C(C)Cc2ccccc2)n(C)n(-c2ccccc2)c1=O (stereo not drawn) ?
condition not met

Decide: LC retention time of CC1C(c2ccccc2)OCCN1C (stereo not drawn) strictly below 5 min?
condition met

For CC(=O)Nc1nnc(S(N)(=O)=O)s1 , is the recorded LC retention time below the cut-off of 5 min?
condition met

Is the reported LC retention time for CC(Cc1ccccc1)NC(C#N)c1ccccc1 (stereo not drawn) strictly below 5 min?
condition not met

Is the reported LC retention time for NC(=O)c1ncn(C2OC(CO)C(O)C2O)c1N (stereo not drawn) strictly below 5 min?
condition met

Input C=CCOc1ccccc1OCC(O)CNC(C)C (stereo not drawn) ; condition: LC retention time strictly below 5 min. Does it hold?
condition met

is_below(LC retention time, 5 min) for COC(=O)C1CC2=CC(=O)CCC2(C)C23OC2CC2(C)C(CCC24CCC(=O)O4)C13 (stereo not drawn) ?
condition not met

# TODO verify LC retention time < 5 min strictly for this compound: CC12Cc3c([nH][nH]c3=O)CC1CCC1C2CCC2(C)C1CCC2(C)O (stereo not drawn)
condition not met

Regarding CCN(CC)C(=O)Nc1ccc(OCC(O)CNC(C)(C)C)c(C(C)=O)c1 (stereo not drawn) , kindly confirm whether its LC retention time is beneath 5 min.
condition met

I'd appreciate it if you could check whether C#CCN(C)C(C)Cc1ccccc1 (stereo not drawn) has LC retention time smaller than 5 min.
condition met

Say whether its LC retention time is strictly beneath 5 min. Entry: Cc1cc(C)cc(NC(=O)Cc2ccc(OC(C)(C)C(=O)O)cc2)c1
condition not met

A record lists CCC(=C(c1ccccc1)c1ccc(OCCN(C)C)cc1)c1ccccc1 . Is its LC retention time below 5 min?
condition not met

Does CC(C)(C)NCC(O)COc1cccc2c1CC(O)C(O)C2 (stereo not drawn) have LC retention time strictly under 5 min?
condition met

Consider CC(C)(C)NCC(O)COc1cccc2c1CCC(=O)N2 (stereo not drawn) . Does its LC retention time lie strictly below 5 min?
condition met

Consider the compound CC(C)NCC(O)COc1ccc(CCOCC2CC2)cc1 (stereo not drawn) . Is its LC retention time strictly less than 5 min?
condition not met

Find out if reported LC retention time for CC(Cc1ccccc1)[n+]1cc(N=C([O-])Nc2ccccc2)on1 (stereo not drawn) is less than 5 min
condition not met

Below 5 min on LC retention time? Entry CC(C(O)c1ccccc1)N(C)C (stereo not drawn)
condition met

Please indicate whether the reported LC retention time of CN1CCC23c4c5ccc(O)c4OC2C(O)C=CC3C1C5 (stereo not drawn) is strictly below 5 min.
condition met

Find out if reported LC retention time for CCCC(=O)Nc1ccc(OCC(O)CNC(C)C)c(C(C)=O)c1 (stereo not drawn) is less than 5 min
condition met

Consider COc1ccc(CC(C)NCC(O)c2ccc(O)c(NC=O)c2)cc1 (stereo not drawn) . Does its LC retention time lie strictly below 5 min?
condition met

Hello, is LC retention time of the following compound strictly smaller than 5 min? CC12CCC3C(CCC4=CC(=O)C=CC43C)C1CCC(=O)O2 (stereo not drawn)
condition not met

# strict comparison: is reported LC retention time < 5 min? input = NC(=O)CN1CC(c2ccccc2)CC1=O (stereo not drawn)
condition met

# TODO verify LC retention time < 5 min strictly for this compound: CC(C)(N)Cc1ccccc1
condition met

Please state whether LC retention time is below 5 min for CC(N)C(O)c1ccccc1 (stereo not drawn)
condition met

Determine if CC12Cc3cn[nH]c3C(O)C1CCC1C2CCC2(C)C1CCC2(C)O (stereo not drawn) shows LC retention time strictly lower than 5 min.
condition not met

Lab log: compare recorded LC retention time with 5 min; is it strictly lower for COC(=O)C(c1ccccc1)C1CCCCN1 (stereo not drawn) ?
condition met

Answer whether the compound CC12CCC(=O)C=C1CCC1C2C(O)CC2(C)C1CCC2(O)C(=O)CO (stereo not drawn) has LC retention time strictly less than 5 min
condition not met

For this compound, is LC retention time lower than 5 min? Cc1cccc(Nc2ccncc2S(=O)(=O)NC(=O)NC(C)C)c1
condition not met

Does the reported LC retention time of the following compound sit strictly below 5 min? CC1(C)OC2CC3C4CCC5=CC(=O)C=CC5(C)C4C(O)CC3(C)C2(C(=O)CO)O1 (stereo not drawn)
condition not met

Strictly below 5 min in LC retention time? CCCCNc1cc(C(=O)O)cc(S(N)(=O)=O)c1Oc1ccccc1
condition not met

Identify whether the compound CN1CCC23c4c5ccc(O)c4OC2C(=O)CCC3(O)C1C5 (stereo not drawn) records LC retention time below 5 min.
condition met

Problem: For the compound CNC(C)C(O)c1ccccc1 (stereo not drawn) , is LC retention time under 5 min?
condition met

Does O=C(CS(=O)C(c1ccccc1)c1ccccc1)NO (stereo not drawn) have LC retention time strictly under 5 min?
condition not met

hey, is LC retention time for CC(Cc1ccccc1)N(C)Cc1ccccc1 (stereo not drawn) lower than 5 min or not?
condition not met

Hi there! Is LC retention time for CC(=O)OCC(=O)C12N=C(C)OC1CC1C3CCC4=CC(=O)C=CC4(C)C3C(O)CC12C (stereo not drawn) below 5 min, do you know?
condition not met

Please state whether LC retention time is below 5 min for CC(N)Cc1ccccc1 (stereo not drawn)
condition met

Check if LC retention time falls below 5 min for CC(C)NCC(O)c1ccc(NS(C)(=O)=O)cc1 (stereo not drawn) .
condition met

Below 5 min on LC retention time? Entry CNC(C)CC1CCCCC1 (stereo not drawn)
condition met

Here's an entry: CC12CCC(=O)C=C1C=CC1C2CCC2(C)C1CCC21CCC(=O)O1 (stereo not drawn) . Is its LC retention time below 5 min?
condition not met

Does the reported LC retention time of CC(C)NCC(O)COc1cccc2[nH]ccc12 (stereo not drawn) stay below 5 min?
condition met

Dear reviewer, please state whether CCC(C)CC(C)N (stereo not drawn) has LC retention time strictly beneath 5 min.
condition met

# check: LC retention time < 5 min for COc1ccccc1OCCNCC(O)COc1cccc2[nH]c3ccccc3c12 (stereo not drawn)
condition not met

Below 5 min on LC retention time? Entry COc1ccc2c3c1OC1C(=O)CCC4(O)C(C2)N(C)CCC314 (stereo not drawn)
condition met

Does this compound meet the criterion LC retention time < 5 min? CC(=O)Oc1c(C)cc(OCC(O)CNC(C)C)c(C)c1C (stereo not drawn)
condition not met

# credit: the RepoRT retention time repository
